target: Sigma 2 receptor; assay: Binding affinity was tested against sigma-2 receptor site in presence of dextrallorphan in rat liver membranes.; type: cell membranes, Membrane
pKi: −log10 of the molar value.
Label no (0) if pKi falls below 7; label yes (1) in every other case.

Determine whether this compound has pKi no lower than 7: NCCN1CCN(CCCc2ccccc2)CC1
no (0)

// next record COc1ccccc1CCN1CCN(CCc2ccccc2OC)CC1
yes (1)

// next record O=C(Cc1ccc([N+](=O)[O-])cc1)N1CCN(CCCc2ccccc2)CC1
no (0)

// next record NCCCCN1CCN(CCCc2ccccc2)CC1
no (0)

====

target: Sigma 2 receptor; experiment: Binding affinity was tested against sigma-2 receptor site in presence of dextrallorphan in rat liver membranes.; format: cell membranes, Membrane
Kindly supply the reported pKi values for the records listed here.
# pKi: negative log10 of molar concentration; output just the value

Requested read-out pKi, target or system Sigma 2 receptor, entry COc1cccc(CCN2CCN(CCc3cccc(OC)c3)CC2)c1
7.54

// next record O=C(Cc1ccc(Cl)c(Cl)c1)N1CCN(CCCc2ccccc2)CC1
7.11

// next record COc1ccc(CC(=O)N2CCN(CCCc3ccccc3)CC2)cc1
6.33

// next record COc1ccc(CCN2CCN(C(=O)Cc3ccc(OC)cc3)CC2)cc1
6.13

These measurements were taken from ChEMBL document CHEMBL1131417.
